# method: Biological Test Example 5: fraction unbound in human plasma (equilibrium dialysis)
# Format: in vitro ADME
reported metric: fraction unbound

CC[C@@H](c1ccc(-c2ccn(C)c(=O)c2)cc1)N1CC[C@](CC(C)(C)O)(c2ccccc2)OC1=O: 0.071
C[C@@H](c1ccc(-c2ccc(=O)n(C)c2)cc1)N1CC[C@](CC(C)(C)O)(c2ccccc2)OC1=O: 0.146

a: C[C@@H](c1ccc(-c2ccn(C3CC3)c(=O)c2)cc1)N1CC[C@](CC(C)(C)O)(c2ccccc2)OC1=O
b: CC[C@@H](c1ccc(-c2ccc(=O)n(C)c2)cc1)N1CC[C@](CC(C)(C)O)(c2ccccc2)OC1=O
-- ask Please choose the item with the lower fraction unbound value from this pair: a and b Answer by quoting the chosen item's label.
-- reply b
